Source: patent US10899754B2

So I've got a bunch of molecules here, and I need their IC50 values.
Molecular target: indoleamine 2, 3-dioxygenase (IDO1) (Homo sapiens)
Sequence (P14902 whole entry): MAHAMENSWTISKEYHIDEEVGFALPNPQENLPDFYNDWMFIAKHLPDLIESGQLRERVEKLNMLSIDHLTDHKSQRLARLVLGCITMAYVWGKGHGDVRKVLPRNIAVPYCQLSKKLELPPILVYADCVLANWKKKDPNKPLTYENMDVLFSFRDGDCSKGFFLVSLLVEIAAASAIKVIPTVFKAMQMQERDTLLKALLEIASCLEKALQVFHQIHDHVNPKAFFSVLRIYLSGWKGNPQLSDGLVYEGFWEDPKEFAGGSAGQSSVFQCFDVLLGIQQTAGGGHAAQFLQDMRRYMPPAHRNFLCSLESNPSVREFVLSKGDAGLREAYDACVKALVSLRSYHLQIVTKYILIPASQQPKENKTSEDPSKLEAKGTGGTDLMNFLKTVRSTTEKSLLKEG
Assay: IDO1 PBMC RapidFire MS assay (kynurenine detection by mass spectrometry)
Assay type: cell-based
Parameters: to induce the expression of indoleamine 2, 3-dioxygenase (IDO1); host or cells: human PBMC stimulated with IFN-gamma and LPS
Conditions: human PBMC stimulated with IFN-γ and LPS, 2 days, pIC50, read-out: PBMC PXC50 (converted)
Numbers only, in µM.

| MOLECULE | EXPERIMENTAL TARGET | MEASUREMENT UNITS | IC50 |
| --- | --- | --- | --- |
| CC(C)CN(c1ccc(-c2ccccc2C(=O)O)cc1Nc1nc(C(N)=O)ns1)C1CCCCC1 [Example 91] | indoleamine 2, 3-dioxygenase (IDO1) (Homo sapiens) | µM | 0.01 |
| CC(C)CN(c1ccc(C(C)CC(=O)O)cc1Nc1nc(C(F)(F)F)ns1)C1CCOCC1 (stereo not drawn) [example 202] | indoleamine 2, 3-dioxygenase (IDO1) (Homo sapiens) | µM | 0.00158 |

# batch: return IC50 for each of the 4 molecules below
1. CC(C)CN(c1ccc([C@H](C)CC(=O)O)cc1Nc1ncc(C#N)cn1)C1CCOCC1 [example 254]
2. Cc1nnc(Nc2cc(-c3ccccc3C(=O)O)ccc2N(CC(C)C)CC(C)C)s1 [example 298]
3. CC(C)CN(c1ccc([C@H](C)CC(=O)NS(=O)(=O)N(C)C)cc1Nc1nc(C(F)(F)F)ns1)C1CCOCC1 [Example 108]
4. CC(C)CN(CCCCCNC(=O)c1ccc(C2(C(F)(F)F)N=N2)cc1)c1ccc([C@H](C)CC(=O)O)cc1Nc1nc(C(F)(F)F)ns1 [example 255]

Completion:
0.126
0.0398
0.00251
0.02
